measurement target: recombinant WT VCP (Mus musculus, UniProt Q01853)
Sequence (Q01853 whole entry): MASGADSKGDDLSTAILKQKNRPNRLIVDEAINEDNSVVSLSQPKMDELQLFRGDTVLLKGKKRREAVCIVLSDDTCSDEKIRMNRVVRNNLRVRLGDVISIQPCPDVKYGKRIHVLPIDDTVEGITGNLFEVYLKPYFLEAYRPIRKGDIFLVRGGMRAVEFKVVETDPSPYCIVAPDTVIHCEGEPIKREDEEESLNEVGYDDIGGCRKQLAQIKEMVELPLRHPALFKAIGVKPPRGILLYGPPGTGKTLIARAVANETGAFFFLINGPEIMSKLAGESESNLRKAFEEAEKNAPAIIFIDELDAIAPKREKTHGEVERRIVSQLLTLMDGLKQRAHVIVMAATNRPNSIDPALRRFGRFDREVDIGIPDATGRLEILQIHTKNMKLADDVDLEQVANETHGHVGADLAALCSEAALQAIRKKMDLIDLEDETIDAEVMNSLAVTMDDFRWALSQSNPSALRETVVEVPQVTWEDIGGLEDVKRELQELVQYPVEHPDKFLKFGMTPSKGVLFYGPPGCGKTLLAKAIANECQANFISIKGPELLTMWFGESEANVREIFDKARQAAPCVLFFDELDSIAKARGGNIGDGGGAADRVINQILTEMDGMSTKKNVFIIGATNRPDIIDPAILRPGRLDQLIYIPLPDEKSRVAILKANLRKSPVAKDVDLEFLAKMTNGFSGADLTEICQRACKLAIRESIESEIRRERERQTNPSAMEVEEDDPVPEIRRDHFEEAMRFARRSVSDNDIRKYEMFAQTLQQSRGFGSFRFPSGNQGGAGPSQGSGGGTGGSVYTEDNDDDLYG
experiment: MESG-PNP
Type: biochemical
run conditions: 25 μM activator compared with DMSO
measurement type: increase in kcat

INSERT INTO measurements (molecule, reported) VALUES
  ('Clc1ccc2[nH]c3c(N4CCC5(CC4)OCCO5)ncnc3c2c1', 'more than 50%'),
  ('COCCNC(=O)NC(=O)COC(=O)c1cc([N+](=O)[O-])ccc1Sc1nc(C)cs1', '100%'),
  ('O=C(OCCN(C1=NS(=O)(=O)c2ccccc21)c1ccc(Cl)cc1)c1ccco1', 'more than 50%');

====

measurement target: recombinant WT VCP (Mus musculus)
Assay type: biochemical
run conditions: WT VCP, increase over baseline
Reported values of maximal increase of VCP activity for individual entries
Remember to follow the number with its unit.

Look over these answered cases.
INSERT INTO measurements (molecule, measurement_type, reported) VALUES
  ('O=C(CSc1nc2ccccc2c(=O)n1NC(=O)c1ccccc1)c1ccc(Cl)cc1', 'maximal increase of VCP activity', '39%'),
  ('COCCNC(=O)NC(=O)COC(=O)c1cc([N+](=O)[O-])ccc1Sc1nc(C)cs1', 'maximal increase of VCP activity', '97%'),
  ('Clc1ccc2[nH]c3c(N4CCC5(CC4)OCCO5)ncnc3c2c1', 'maximal increase of VCP activity', '50%');

Now let's try a different one.
[ask] Give the measured maximal increase of VCP activity for O=C(OCCN(C1=NS(=O)(=O)c2ccccc21)c1ccc(Cl)cc1)c1ccco1
[reply] 104%

====

Item-by-item account of Maximum % Activity (95% CI)
measurement target: WT VCP + Ufd1/Nploc4 (Mus musculus)
Sequence (Q01853 whole entry): as above
Sequence (Q92890 whole entry partner): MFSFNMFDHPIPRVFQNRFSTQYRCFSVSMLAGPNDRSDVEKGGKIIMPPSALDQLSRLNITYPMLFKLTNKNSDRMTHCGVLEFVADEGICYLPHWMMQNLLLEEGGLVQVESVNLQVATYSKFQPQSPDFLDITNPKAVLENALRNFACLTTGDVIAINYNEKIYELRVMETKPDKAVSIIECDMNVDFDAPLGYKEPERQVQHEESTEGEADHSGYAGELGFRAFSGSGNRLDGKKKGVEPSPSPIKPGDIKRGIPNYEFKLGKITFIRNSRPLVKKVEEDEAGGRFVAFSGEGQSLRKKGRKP
Sequence (Q8TAT6 whole entry partner): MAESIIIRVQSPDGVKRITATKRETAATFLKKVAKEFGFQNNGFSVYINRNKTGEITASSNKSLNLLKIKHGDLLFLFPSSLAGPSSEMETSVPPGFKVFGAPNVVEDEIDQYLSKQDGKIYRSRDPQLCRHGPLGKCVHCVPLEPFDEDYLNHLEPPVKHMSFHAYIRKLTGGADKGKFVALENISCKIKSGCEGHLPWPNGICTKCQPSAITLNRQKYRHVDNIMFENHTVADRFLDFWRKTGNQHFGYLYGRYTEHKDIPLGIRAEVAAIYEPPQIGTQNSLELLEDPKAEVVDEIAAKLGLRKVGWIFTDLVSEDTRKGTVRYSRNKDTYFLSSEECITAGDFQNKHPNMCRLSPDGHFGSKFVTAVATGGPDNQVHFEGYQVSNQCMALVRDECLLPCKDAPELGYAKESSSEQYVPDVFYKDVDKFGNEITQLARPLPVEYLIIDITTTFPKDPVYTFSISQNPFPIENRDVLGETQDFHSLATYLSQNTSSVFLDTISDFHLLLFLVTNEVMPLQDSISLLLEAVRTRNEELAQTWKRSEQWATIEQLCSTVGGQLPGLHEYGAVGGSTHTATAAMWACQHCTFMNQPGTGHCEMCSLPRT
experiment: Kinase-Glo ATPase assay of recombinant VCP with UFD1/NPLOC4 cofactors
Type: biochemical
run conditions: WT VCP + Ufd1/Nploc4, 50 nM each, 62.5 μM ATP

[ask] Supply Maximum % Activity (95% CI) value. Item: Clc1ccc2[nH]c3c(N4CCC5(CC4)OCCO5)ncnc3c2c1
[reply] 152.1 (143.2, 164.4) %

[ask] Determine its reported Maximum % Activity (95% CI): O=C(CSc1nc2ccccc2c(=O)n1NC(=O)c1ccccc1)c1ccc(Cl)cc1
[reply] 124.6 (119.8, 130.2) %

[ask] Name the recorded Maximum % Activity (95% CI) of the compound listed here: O=C(OCCN(C1=NS(=O)(=O)c2ccccc21)c1ccc(Cl)cc1)c1ccco1
[reply] 151.8 (144.7, 160.7) %

[ask] Note down Maximum % Activity (95% CI) recorded for COCCNC(=O)NC(=O)COC(=O)c1cc([N+](=O)[O-])ccc1Sc1nc(C)cs1
[reply] 175.3 (164.6, 188.0) %

====

This listing pairs compounds with measured EC50.
measurement target: WT VCP + Ufd1/Nploc4 (Mus musculus)
experiment: Kinase-Glo ATPase assay of recombinant VCP with UFD1/NPLOC4 cofactors
Type: biochemical
run conditions: read-out: EC50 (μM) (95% CI); WT VCP + Ufd1/Nploc4, 50 nM each, 62.5 μM ATP
# unit: µM | format: bare number

A selection of reference data follows.
INSERT INTO measurements (molecule, measurement_target, value_unit, reported) VALUES
  ('O=C(OCCN(C1=NS(=O)(=O)c2ccccc21)c1ccc(Cl)cc1)c1ccco1', 'WT VCP + Ufd1/Nploc4 (Mus musculus)', 'µM', 8.9),
  ('Clc1ccc2[nH]c3c(N4CCC5(CC4)OCCO5)ncnc3c2c1', 'WT VCP + Ufd1/Nploc4 (Mus musculus)', 'µM', 14.3),
  ('COCCNC(=O)NC(=O)COC(=O)c1cc([N+](=O)[O-])ccc1Sc1nc(C)cs1', 'WT VCP + Ufd1/Nploc4 (Mus musculus)', 'µM', 13.4);

Please turn your attention to the following entry.
[ask] Supply reported EC50 belonging to this compound: O=C(CSc1nc2ccccc2c(=O)n1NC(=O)c1ccccc1)c1ccc(Cl)cc1
[reply] 0.648

From: paper PMC10055171
